src = patent US20250026815A1

target: RSV-F protein of RSV A Long virus (as carried by the live virus in the neutralisation assay) (human respiratory syncytial virus, …, UniProt P12568 26-574); assay: cell-based or functional assay
Measured attribute: Absolute IC50, neutralizing RSV A Long (HEp-2 cells, indirect ELISA) (µg/mL)
Numbers only here, please. The scale is µg/mL.

Per the records, this binder ( R10-19B2QH (antibody, human IgG1, kappa, V domains shown) VH: EVKLQESGPGMLQPSQTLSLTCSFSGFSLSTSGMGVSWIRQPSGKGLEWLAHIYWDDDKNFNPSLRSRLIISKDPSRNQVFLEITSVDTADTATYFCARKLYNDYDYILDYWGQGTSVTVSS VL: DIVMTQAAFSNPVTLGTSASISCRSSKSLLHSNGITYLCWFLQKPGQSPQLLIYQMSNLASGVPDRFSGSGSGTDFTLRISRVEAEDVGVYYCAQNLELWTFGGGTKLEIKR ) has Absolute IC50, neutralizing RSV A Long (HEp-2 cells, indirect ELISA) equal to 0.0102
